assay: Acute Toxicity; settings: mouse, in vivo, ip
reported property: LD50 (mg/kg)
Number only, in mg/kg; omit the unit.

Quick one: LD50 of CN[C@@H]1[C@@H](O)[C@@H](O[C@@H]2[C@@H](O)[C@H](O[C@H]3OC(CN)=CC[C@H]3N)[C@@H](N)C[C@H]2N)OC[C@]1(C)O [Sisomicin, reference compound] ? 190

* * *

Measured zone of inhibition at 10 µg/disc values are reported for all entries that follow.
test system: Pseudomonas aeruginosa; test: Disc test, Bauer-Kirby technique with 10 Mcg. discs; type: cell-based; conditions: Pseudomonas aeruginosa, strain D-2
Number only, in mm; omit the unit.

- compound: "CN[C@@H]1[C@@H](O)[C@@H](O[C@H]2[C@H](N)[C@H](O)[C@H](N)[C@@H](O[C@H]3OC(CN)=CC[C@H]3N)[C@@H]2O)OC[C@]1(C)O"
  zone of inhibition at 10 µg/disc, mm: 17
- compound: "CN[C@@H]1[C@@H](O)[C@@H](O[C@@H]2[C@@H](N)[C@H](O[C@H]3OC(CN)=CC[C@H]3N)[C@@H](N)C[C@H]2N)OC[C@]1(C)O"
  zone of inhibition at 10 µg/disc, mm: 0

Quick one: zone of inhibition at 10 µg/disc of `CN[C@@H]1[C@@H](O)[C@@H](O[C@H]2[C@H](N)[C@@H](O)[C@H](N)[C@@H](O[C@H]3OC(CN)=CC[C@H]3N)[C@@H]2O)OC[C@]1(C)O` ? 21

Quick one: zone of inhibition at 10 µg/disc of CN[C@@H]1[C@@H](O)[C@@H](O[C@@H]2[C@@H](O)[C@H](O[C@H]3OC(CN)=CC[C@H]3N)[C@@H](N)C[C@H]2N)OC[C@]1(C)O [Sisomicin, reference compound] ? 24

Quick one: zone of inhibition at 10 µg/disc of `CN[C@@H]1[C@@H](O)[C@@H](O[C@@H]2C[C@H](O[C@H]3OC(CN)=CC[C@H]3N)[C@@H](N)C[C@H]2N)OC[C@]1(C)O` ? 26

* * *

Measured zone of inhibition at 10 µg/disc values are reported for all entries that follow.
tested on: Pseudomonas aeruginosa; assay: Disc test, Bauer-Kirby technique with 10 Mcg. discs; format: cell-based; conditions: Pseudomonas aeruginosa, strain Stone 130
Number only, in mm; omit the unit.

- compound: "CN[C@@H]1[C@@H](O)[C@@H](O[C@@H]2C[C@H](O[C@H]3OC(CN)=CC[C@H]3N)[C@@H](N)C[C@H]2N)OC[C@]1(C)O"
  unit descriptor: "mm"
  zone of inhibition at 10 µg/disc: 25
- compound: "CN[C@@H]1[C@@H](O)[C@@H](O[C@@H]2[C@@H](O)[C@H](O[C@H]3OC(CN)=CC[C@H]3N)[C@@H](N)C[C@H]2N)OC[C@]1(C)O [Sisomicin, reference compound]"
  unit descriptor: "mm"
  zone of inhibition at 10 µg/disc: 14
- compound: "CN[C@@H]1[C@@H](O)[C@@H](O[C@H]2[C@H](N)[C@@H](O)[C@H](N)[C@@H](O[C@H]3OC(CN)=CC[C@H]3N)[C@@H]2O)OC[C@]1(C)O"
  unit descriptor: "mm"
  zone of inhibition at 10 µg/disc: 14

Value wanted: zone of inhibition at 10 µg/disc (Pseudomonas aeruginosa) of entry `CN[C@@H]1[C@@H](O)[C@@H](O[C@@H]2[C@@H](N)[C@H](O[C@H]3OC(CN)=CC[C@H]3N)[C@@H](N)C[C@H]2N)OC[C@]1(C)O` 0

Value wanted: zone of inhibition at 10 µg/disc (Pseudomonas aeruginosa) of entry `CN[C@@H]1[C@@H](O)[C@@H](O[C@H]2[C@H](N)[C@H](O)[C@H](N)[C@@H](O[C@H]3OC(CN)=CC[C@H]3N)[C@@H]2O)OC[C@]1(C)O` 14
